experimental-protocol: in vivo
details: mouse, tumor, po, 60 mg/kg

{"columns": ["molecule-smiles", "AUC at 120 h"],
 "data": [
  ["C[C@@H](C(=O)Nc1ccc(Cl)cc1)[C@H]1CC[C@@H](c2ccnc3ccc(F)cc32)CC1", "34.9 µM·h"]
]}

====

target-or-test-system: UniProt:P14902
Sequence (P14902 whole entry): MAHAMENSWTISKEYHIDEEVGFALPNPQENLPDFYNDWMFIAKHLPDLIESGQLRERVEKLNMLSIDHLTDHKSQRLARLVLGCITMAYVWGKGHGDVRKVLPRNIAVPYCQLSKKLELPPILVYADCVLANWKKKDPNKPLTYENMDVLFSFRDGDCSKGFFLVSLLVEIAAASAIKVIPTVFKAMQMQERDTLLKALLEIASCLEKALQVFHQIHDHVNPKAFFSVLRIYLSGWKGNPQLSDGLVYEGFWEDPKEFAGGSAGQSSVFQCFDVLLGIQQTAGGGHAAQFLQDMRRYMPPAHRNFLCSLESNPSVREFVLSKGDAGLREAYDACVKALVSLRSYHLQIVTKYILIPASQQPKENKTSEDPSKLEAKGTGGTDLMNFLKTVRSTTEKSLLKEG
experimental-protocol: Inhibition of IDO1 in recombinant IFN-gamma induced human HeLa cells incubated for 18 hrs by fluorescence microplate reader assay
assay-endpoint: IC50 (nM)

{"columns": ["molecule", "measured-number"],
 "data": [
  ["CCC(Nc1nnc(-c2ccc(OC)cc2)o1)[C@H]1CC[C@H](Oc2ccnc3ccccc23)CC1 (stereo partly specified)", 13],
  ["CCC(c1nc2ccc(Cl)cc2[nH]1)[C@H]1CC[C@H](Oc2ccnc3ccccc23)CC1 (stereo partly specified)", 7],
  ["CCOCC(Nc1nnc(-c2ccc(OC)cc2)o1)[C@H]1CC[C@@H](c2ccnc3ccc(C(F)(F)F)cc32)CC1 (stereo partly specified)", 13],
  ["C[C@@H](c1ncc(-c2ccc(Cl)cc2)[nH]1)[C@H]1CC[C@@H](c2ccnc3ccc(F)cc32)CC1", 11],
  ["CCC(c1nc2ncc(Cl)cc2[nH]1)[C@H]1CC[C@@H](c2ccnc3ccc(C(F)(F)F)cc32)CC1 (stereo partly specified)", 2],
  ["C[C@@H](c1nnc(-c2ccc(Cl)cc2)[nH]1)[C@H]1CC[C@@H](c2ccnc3ccc(F)cc32)CC1", 20],
  ["C[C@@H](c1ncc(-c2ccc(Cl)cc2)o1)[C@H]1CC[C@@H](c2ccnc3ccc(F)cc32)CC1", 495],
  ["C[C@@H](c1nnc(-c2ccc(Cl)cc2)o1)[C@H]1CC[C@@H](c2ccnc3ccc(F)cc32)CC1", 239],
  ["C[C@@H](c1nc2ccc(F)cc2[nH]1)[C@H]1CC[C@@H](c2ccnc3ccc(F)cc32)CC1", 3],
  ["C[C@@H](c1nc2ncc(Cl)cc2[nH]1)[C@H]1CC[C@@H](c2ccnc3ccc(F)cc32)CC1", 4],
  ["C[C@@H](c1nc2ccc(Cl)cc2[nH]1)[C@H]1CC[C@@H](c2ccnc3ccc(F)cc32)CC1", 3],
  ["CCC(Nc1nnc(-c2ccc(OC)cc2)o1)[C@H]1CC[C@@H](c2ccnc3ccc(C(F)(F)F)cc32)CC1 (stereo partly specified)", 3],
  ["COc1ccc(-c2nnc(N[C@H](C)[C@H]3CC[C@@H](c4ccnc5ccc(F)cc54)CC3)o2)cc1", 3],
  ["COc1ccc(Nc2nnc([C@H](C)[C@H]3CC[C@@H](c4ccnc5ccc(F)cc54)CC3)o2)cc1", 165],
  ["CCC(c1nc2ncc(Cl)cc2[nH]1)[C@H]1CC[C@@H](c2ccnc3ccc(F)cc32)CC1 (stereo partly specified)", 2],
  ["CCC(Nc1nnc(-c2ccc(OC)cc2)o1)[C@H]1CC[C@@H](c2ccnc3ccc(F)cc32)CC1 (stereo partly specified)", 6]
]}
